# SYSTEM TESTED: FXR-LBD (Homo sapiens, UniProt Q96RI1)
# Construct: Add 5 μl of 4×FXR-LBD to 384 well assay plates
# Sequence (Q96RI1 262-486 limits assumed): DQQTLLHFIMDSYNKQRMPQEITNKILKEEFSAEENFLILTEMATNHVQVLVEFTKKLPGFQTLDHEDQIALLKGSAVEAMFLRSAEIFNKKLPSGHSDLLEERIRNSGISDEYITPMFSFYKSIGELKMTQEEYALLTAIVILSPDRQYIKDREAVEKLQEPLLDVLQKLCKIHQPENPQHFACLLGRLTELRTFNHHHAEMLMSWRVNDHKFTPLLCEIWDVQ
# PROTOCOL DESCRIPTION: FXR Coactivator Assay (LanthaScreen TR-FRET)
Structures can show the parent of a compound that is named as a salt.
Recorded measurements of EC50, one per entry

Recorded results for 3 molecules are shown here.
- CC(C)c1onc(-c2c(Cl)cccc2Cl)c1COc1ccc(C2(C)CC2c2cncc(C(=O)O)c2)c(Cl)c1 (centres unmarked) [VI-04]: 0.01 to 0.1 µM
- CC(C)c1onc(-c2c(Cl)cccc2Cl)c1COc1ccc(C2CC2(C)c2cc(C(=O)O)nn2C(C)C)c(Cl)c1 (centres unmarked) [IV-20]: 0.01 to 0.1 µM
- CC(C)c1onc(-c2c(Cl)cccc2Cl)c1COc1ccc(C2CC2(CN)c2ccc(C(=O)O)cc2)c(Cl)c1 (centres unmarked) [Compound V2-01, Hydrochloride]: 0.401 to 5 µM

Which EC50 is reported for this molecule? N#CC1(c2ccc(OCc3c(-c4c(Cl)cccc4Cl)noc3C3CC3)cc2Cl)CC1c1cccc(C(=O)O)c1 (centres unmarked) [VII-03]
0.01 to 0.1 µM

Subsequent entry: CC(C)c1onc(-c2c(Cl)cccc2Cl)c1COc1ccc(C2(C#N)CC2c2ccc(C(=O)O)cc2)c(Cl)c1 (centres unmarked) [VII-01]
0.01 to 0.1 µM

* * *

# SYSTEM TESTED: FXR (Homo sapiens, UniProt Q96RI1)
# PROTOCOL DESCRIPTION: FXR Transactivation Assay (pBIND-FXR / pGL4.35 luciferase reporter in HEK293T)
# EXPERIMENTAL CONDITIONS: HEK293T cells
PARAMETER MEASURED: EC50

- CC(C)c1onc(-c2c(Cl)cccc2Cl)c1COc1ccc(C2(C)CC2c2cccc(C(=O)O)c2)c(Cl)c1 (centres unmarked): 10 to 100 nM

Query EC50 on FXR (Homo sapiens, UniProt Q96RI1) for CC(C)c1onc(-c2c(Cl)cccc2Cl)c1COc1ccc(C2CC2(C)c2cncc(C(=O)O)c2)c(Cl)c1 (centres unmarked) [IV-05]
10 to 100 nM

Subsequent entry: CC(C)c1onc(-c2c(Cl)cccc2Cl)c1COc1ccc(C2CC2(C)c2ccc3c(c2)c(C(=O)O)nn3C(C)C)c(Cl)c1 (centres unmarked)
401 to 5000 nM

Subsequent entry: N#CC1(c2cccc(C(=O)O)c2)CC1c1ccc(OCc2c(-c3c(Cl)cccc3Cl)noc2C2CC2)cc1Cl (centres unmarked)
401 to 5000 nM

Subsequent entry: CC1(c2cncc(C(=O)O)c2)CC1c1ccc(OCc2c(-c3ccccc3OC(F)(F)F)noc2C2CC2)cc1Cl (centres unmarked)
101 to 400 nM

These entries and their values trace back to patent US10899723B2.
